assay.endpoint: melting point

> print(dat)
                                   molecule  assay.endpoint  experimental.result
1  COc1cc(OCc2ccccc2)ccc1-c1c[nH]c(-c2ccc(C(F)(F)F)cc2)n1 [Example 13]   melting point        231 to 232 °C
2  COc1cc(-c2c[nH]c(-c3ccsc3)n2)ccc1OCc1ccc(Cl)cc1 [Example 71]   melting point        197 to 201 °C
3  COc1cc(-c2c[nH]c(C(C)C)n2)ccc1OCc1ccc(Cl)cc1 [Example 35]   melting point        126 to 128 °C
4  COc1cc(OCc2ccccc2)ccc1-c1c[nH]c(-c2ccsc2)n1 [Example 24]   melting point        188 to 192 °C
5  COc1cc(-c2c[nH]c(-c3ccc(C(C)(C)C)cc3)n2)ccc1OCc1ccccc1 [Example 28]   melting point        138 to 141 °C
6  COc1cc(OCc2ccc(Br)cc2F)ccc1-c1c[nH]c(-c2ccsc2)n1.Cl [Example 68]   melting point        247 to 249 °C

====

Listed here: items and their measured melting point.
assay.endpoint: melting point

> print(dat)
                  compound.structure.string  assay.endpoint  experimental.result
1  COC(=O)c1ccc(-c2nc(-c3ccc(OCc4ccc(Br)cc4F)cc3OC)c[nH]2)cc1   melting point        158 to 159 °C
2  COc1cc(OCc2ccc(Cl)cc2)ccc1-c1c[nH]c(-c2ccc(F)cc2)n1   melting point        174 to 176 °C
3  COc1cc(-c2nc(-c3ccc(F)cc3)[nH]c2C)ccc1OCc1ccccc1   melting point        214 to 218 °C
4  COc1cc(OCc2ccc(Cl)cc2)ccc1-c1c[nH]c(-c2ccc(C(F)(F)F)cc2)n1   melting point        158 to 162 °C
5  COc1cc(-c2c[nH]c(-c3cccc(F)c3)n2)ccc1OCc1ccccc1.Cl   melting point        212 to 215 °C
6  COc1cc(OCc2ccc(Br)cc2F)ccc1-c1c[nH]c(-c2ccc(F)c(Cl)c2)n1   melting point        237 to 243 °C
7  COc1cc(-c2c[nH]c(-c3ccsc3)n2)ccc1OCc1ccccc1   melting point        132 to 135 °C
8  COc1cc(OCc2ccccc2)ccc1-c1c[nH]c(-c2ccc(C(C)(C)C)cc2)n1   melting point        227 to 229 °C

====

- assayed.system: LPL (lipoprotein lipase) (Mus musculus)
- Construct: endogenous in cells; host or cells: C2C12 cells, differentiated
- Sequence (P11152 28-474): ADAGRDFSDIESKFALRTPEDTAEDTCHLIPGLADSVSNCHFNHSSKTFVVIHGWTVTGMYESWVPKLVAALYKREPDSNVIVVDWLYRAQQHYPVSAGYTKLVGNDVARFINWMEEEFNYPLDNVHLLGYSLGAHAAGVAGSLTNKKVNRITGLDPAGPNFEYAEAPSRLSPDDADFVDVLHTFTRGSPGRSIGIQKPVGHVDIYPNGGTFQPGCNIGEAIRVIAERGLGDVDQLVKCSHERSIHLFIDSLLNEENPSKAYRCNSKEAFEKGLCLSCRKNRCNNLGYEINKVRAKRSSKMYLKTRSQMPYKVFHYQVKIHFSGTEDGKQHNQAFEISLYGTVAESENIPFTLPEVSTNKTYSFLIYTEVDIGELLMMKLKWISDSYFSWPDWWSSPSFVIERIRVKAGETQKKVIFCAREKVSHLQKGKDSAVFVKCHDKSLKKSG
- run.description: Confirmation test of LPL activation effect in mouse skeletal muscle cells (C2C12 cells)
- Format: cell-based
- experimental.parameters: amount of addition 30 μM, 8 hours exposure, vs control group
Listed here: items and their measured Rate of increase in LPL activity.
assay.endpoint: Rate of increase in LPL activity (%)

> print(dat)
                   compound.structure.string  scale.unit  experimental.result
 1  COc1cc(-c2c[nH]c(-c3ccc(F)cc3)n2)ccc1OCc1cccc(C#N)c1.Cl           %                   92
 2  COc1cc(OCc2ccc(C#N)cc2)ccc1-c1c[nH]c(-c2cccc(C(F)(F)F)c2)n1.Cl           %                   55
 3  COC(=O)c1ccc(-c2nc(-c3ccc(OCc4ccccc4)c(OC)c3)c[nH]2)cc1.Cl           %                  100
 4  COc1cc(-c2c[nH]c(-c3ccsc3)n2)ccc1OCc1ccc(Br)cc1F.Cl           %                  142
 5  COc1cc(OCc2ccc(Br)cc2F)ccc1-c1c[nH]c(-c2ccc(C(=O)O)cc2)n1.Cl           %                   15
 6  COc1cc(OCc2ccc(Br)cc2F)ccc1-c1c[nH]c(-c2ccc(C)cc2)n1           %                   97
 7  COc1cc(-c2c[nH]c(-c3ccc(F)cc3)n2)ccc1OCc1ccccc1           %                  113
 8  COc1cc(OCc2ccc(Cl)cc2)ccc1-c1c[nH]c(-c2ccccc2C(F)(F)F)n1           %                  100
 9  COc1cc(OCc2ccc(Br)cc2F)ccc1-c1c[nH]c(-c2cccs2)n1.Cl           %                   95
10  COc1cc(-c2c[nH]c(-c3cc(Cl)cc(Cl)c3)n2)ccc1OCc1ccccc1           %                   97
11  COc1cc(OCc2ccccc2)ccc1-c1c[nH]c(-c2ccc(Cl)c(Cl)c2)n1.Cl           %                  113
12  COc1cc(OCc2ccc(Br)cc2F)ccc1-c1c[nH]c(-c2ccccc2)n1.Cl           %                  231
13  COc1cc(OCc2ccc(Cl)cc2)ccc1-c1c[nH]c(-c2ccc(Cl)c(Cl)c2)n1           %                  106
14  COc1cc(OCc2ccccc2)ccc1-c1c[nH]c(-c2ccccc2)n1.Cl           %                  197
15  COc1cc(-c2c[nH]c(-c3ccsc3)n2)ccc1OCc1ccc(C#N)cc1           %                   32
16  COc1cc(-c2c[nH]c(-c3ccc(C(F)(F)F)cc3)n2)ccc1OCc1ccc(C#N)cc1           %                   94
17  COc1cc(OCc2ccccc2)ccc1-c1c[nH]c(-c2cccc(F)c2)n1.Cl           %                   87
18  COc1cc(-c2c[nH]c(-c3cccs3)n2)ccc1OCc1ccc(Cl)cc1           %                   38
19  COc1cc(OCc2ccc(C#N)cc2)ccc1-c1c[nH]c(-c2ccsc2)n1           %                   46
20  COc1cc(-c2c[nH]c(-c3ccc(F)cc3)n2)ccc1OCc1ccccc1C#N           %                   70

====

Listed here: items and their measured melting point.
assay.endpoint: melting point

> print(dat)
                   compound.structure.string  experimental.result
 1  COc1cc(OCc2ccccc2)ccc1-c1c[nH]c(-c2cccc(C(F)(F)F)c2)n1        159 to 162 °C
 2  COc1cc(OCc2ccc(Br)cc2F)ccc1-c1c[nH]c(-c2ccccc2C(F)(F)F)n1.Cl        224 to 228 °C
 3  COc1cc(OCc2ccc(Br)cc2F)ccc1-c1c[nH]c(-c2cccc(C(F)(F)F)c2)n1.Cl             > 250 °C
 4  COc1cc(-c2c[nH]c(-c3ccc(C)c(F)c3)n2)ccc1OCc1ccccc1.Cl        236 to 237 °C
 5  COc1cc(-c2c[nH]c(-c3cccs3)n2)ccc1OCc1ccc(Br)cc1F        177 to 179 °C
 6  COc1cc(OCc2ccc(Cl)cc2)ccc1-c1c[nH]c(-c2cccs2)n1        107 to 109 °C
 7  COc1cc(OCc2ccc(Br)cc2F)ccc1-c1c[nH]c(-c2ccccc2)n1.Cl        239 to 240 °C
 8  COc1cc(-c2c[nH]c(-c3cccs3)n2)ccc1OCc1ccc(C#N)cc1        192 to 193 °C
 9  COc1cc(OCc2ccc(C#N)cc2)ccc1-c1c[nH]c(-c2ccc(C(C)(C)C)cc2)n1        177 to 184 °C
10  COc1cc(OCc2ccc(C#N)cc2)ccc1-c1c[nH]c(-c2ccc(F)c(F)c2)n1        173 to 176 °C
11  COc1cc(-c2c[nH]c(-c3ccoc3)n2)ccc1OCc1ccccc1        177 to 179 °C
12  COc1cc(-c2cn(C)c(-c3ccccc3)n2)ccc1OCc1ccccc1        146 to 147 °C
13  COc1cc(OCc2ccc(Cl)cc2F)ccc1-c1c[nH]c(-c2ccccc2)n1.Cl        249 to 251 °C
14  COc1cc(-c2c[nH]c(-c3ccc(F)c(F)c3)n2)ccc1OCc1ccccc1.Cl        226 to 227 °C
